This collection of values is drawn from ChEMBL document CHEMBL6134907.

experiment: Oral bioavailability in male Sprague-Dawley rat at 5 mg/kg measured up to 24 hrs by LCMS-MS analysis; type: ADME, organism-based; details: in vivo
measured-attribute: bioavailability (%)
Note: unit % is implicit; provide only the numeric part.

In: Endpoint output: bioavailability of `COc1cc2c(=O)n(CCN(C)C)c3c4cc5c(cc4ccc3c2cc1OCCN1CCOCC1)OCO5` . Value?
Out: 63.1

* * *

test: MRT infinity in male Sprague-Dawley rat at 5 mg/kg, IG measured up to 24 hrs by LCMS-MS analysis; type: ADME, organism-based; settings: in vivo, po
measured-attribute: MRT inf (h)
Note: unit h is implicit; provide only the numeric part.

In: Endpoint output: MRT inf of `COc1cc2c(=O)n(CCN(C)C)c3c4cc5c(cc4ccc3c2cc1OCCN1CCOCC1)OCO5` . Value?
Out: 7.06

* * *

assay: AUClast in male Sprague-Dawley rat at 5 mg/kg, IG measured up to 24 hrs by LCMS-MS analysis; assay type: ADME, organism-based; conditions: in vivo, po
measured-attribute: AUC(0-t) at 24 h (ng·h/mL)
Note: unit ng·h/mL is implicit; provide only the numeric part.

In: Endpoint output: AUC(0-t) at 24 h of `COc1cc2c(=O)n(CCN(C)C)c3c4cc5c(cc4ccc3c2cc1OCCN1CCOCC1)OCO5` . Value?
Out: 779

* * *

experiment: Half life in male Sprague-Dawley rat at 5 mg/kg, IG measured up to 24 hrs by LCMS-MS analysis; type: ADME, organism-based; details: in vivo, po
measured-attribute: half-life (h)
Note: unit h is implicit; provide only the numeric part.

In: Endpoint output: half-life of `COc1cc2c(=O)n(CCN(C)C)c3c4cc5c(cc4ccc3c2cc1OCCN1CCOCC1)OCO5` . Value?
Out: 4.64

* * *

assay: Tmax in male Sprague-Dawley rat at 1 mg/kg, iv measured up to 24 hrs by LCMS-MS analysis; format: ADME, organism-based; settings: in vivo
measured-attribute: Tmax (min)
Note: unit min is implicit; provide only the numeric part.

In: Endpoint output: Tmax of `COc1cc2c(=O)n(CCN(C)C)c3c4cc5c(cc4ccc3c2cc1OCCN1CCOCC1)OCO5` . Value?
Out: 4.98

* * *

test: Cmax in male Sprague-Dawley rat at 1 mg/kg, iv measured up to 24 hrs by LCMS-MS analysis; assay type: ADME, organism-based; settings: in vivo
measured-attribute: Cmax (ng/mL)
Note: unit ng/mL is implicit; provide only the numeric part.

In: Endpoint output: Cmax of `COc1cc2c(=O)n(CCN(C)C)c3c4cc5c(cc4ccc3c2cc1OCCN1CCOCC1)OCO5` . Value?
Out: 221

* * *

assay: MRT infinity in male Sprague-Dawley rat at 1 mg/kg, iv measured up to 24 hrs by LCMS-MS analysis; assay type: ADME, organism-based; details: in vivo
measured-attribute: MRT inf (h)
Note: unit h is implicit; provide only the numeric part.

In: Endpoint output: MRT inf of `COc1cc2c(=O)n(CCN(C)C)c3c4cc5c(cc4ccc3c2cc1OCCN1CCOCC1)OCO5` . Value?
Out: 3.33

* * *

molecular target: Tyrosyl-DNA phosphodiesterase 1 (Homo sapiens, UniProt Q9NUW8); assay: Inhibition of recombinant TDP1 (unknown origin) assessed as substrate cleavage using 5'-Cy5-GATCTAAAAGACTT-pY-3' DNA substrate measured after 15 mins by gel-based assay
Sequence (Q9NUW8 whole entry): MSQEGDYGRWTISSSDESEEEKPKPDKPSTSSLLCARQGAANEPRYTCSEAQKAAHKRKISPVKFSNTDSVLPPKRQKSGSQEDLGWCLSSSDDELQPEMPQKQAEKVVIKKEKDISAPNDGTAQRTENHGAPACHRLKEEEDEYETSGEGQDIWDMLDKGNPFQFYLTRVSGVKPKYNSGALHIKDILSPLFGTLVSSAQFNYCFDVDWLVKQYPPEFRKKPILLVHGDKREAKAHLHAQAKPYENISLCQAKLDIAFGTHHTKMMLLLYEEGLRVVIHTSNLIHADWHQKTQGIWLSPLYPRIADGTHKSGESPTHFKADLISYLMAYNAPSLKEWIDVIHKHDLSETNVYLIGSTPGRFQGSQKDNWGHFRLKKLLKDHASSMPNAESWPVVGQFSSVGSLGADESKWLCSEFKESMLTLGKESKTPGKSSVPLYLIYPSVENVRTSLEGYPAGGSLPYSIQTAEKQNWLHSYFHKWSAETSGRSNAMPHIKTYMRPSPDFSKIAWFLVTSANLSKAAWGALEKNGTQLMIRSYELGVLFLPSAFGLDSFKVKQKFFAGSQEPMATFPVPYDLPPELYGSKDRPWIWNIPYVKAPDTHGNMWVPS
# reported IC50; entries follow
Note: unit µM is implicit; provide only the numeric part.

In: Endpoint output: IC50 of `COc1cc2c(=O)n(CCN(C)C)c3c4cc5c(cc4ccc3c2cc1OCCN(C)C)OCO5` . Value?
Out: 12

In: Endpoint output: IC50 of `COc1cc2c(=O)n(CCN(C)C)c3c4cc5c(cc4ccc3c2cc1OCCN1CCOCC1)OCO5` . Value?
Out: 7.8

In: Endpoint output: IC50 of `CCN(CC)CCOc1cc2c(cc1OC)c(=O)n(CCN(C)C)c1c3cc4c(cc3ccc21)OCO4` . Value?
Out: 43

In: Endpoint output: IC50 of `COc1cc2c(=O)n(CCN(C)C)c3c4cc5c(cc4ccc3c2cc1OCCCN1CCSCC1)OCO5` . Value?
Out: 5.7

In: Endpoint output: IC50 of `COc1cc2c(=O)n(CCN(C)C)c3c4cc5c(cc4ccc3c2cc1OCCn1ccnc1)OCO5` . Value?
Out: 33

In: Endpoint output: IC50 of `COc1cc2c(=O)n(CCN(C)C)c3c4cc5c(cc4ccc3c2cc1OCCN1CCCCC1)OCO5` . Value?
Out: 22

In: Endpoint output: IC50 of `COc1cc2c(=O)n(CCN(C)C)c3c4cc5c(cc4ccc3c2cc1OCCCN1CCCCC1)OCO5` . Value?
Out: 6.9

In: Endpoint output: IC50 of `COc1cc2c(cc1OCCCN1CCOCC1)c(=O)n(CCN(C)C)c1c3cc4c(cc3ccc21)OCO4` . Value?
Out: 17

In: Endpoint output: IC50 of `COc1cc2c(=O)n(CCN(C)C)c3c4cc5c(cc4ccc3c2cc1OCCCN1CCN(C)CC1)OCO5` . Value?
Out: 7.8

In: Endpoint output: IC50 of `CCN(CC)CCCOc1cc2c(=O)n(CCN(C)C)c3c4cc5c(cc4ccc3c2cc1OC)OCO5` . Value?
Out: 6.4

Continuing:
In: Endpoint output: IC50 of `COc1cc2c(cc1OCCCN1CCN(C)CC1)c(=O)n(CCN(C)C)c1c3cc4c(cc3ccc21)OCO4` . Value?
Out: 31

In: Endpoint output: IC50 of `CCN(CC)CCOc1cc2c(=O)n(CCN(C)C)c3c4cc5c(cc4ccc3c2cc1OC)OCO5` . Value?
Out: 20

In: Endpoint output: IC50 of `CCCCN(CCCC)CCCOc1cc2c(cc1OC)c(=O)n(CCN(C)C)c1c3cc4c(cc3ccc21)OCO4` . Value?
Out: 31

In: Endpoint output: IC50 of `CCCCN(CCCC)CCOc1cc2c(cc1OC)c(=O)n(CCN(C)C)c1c3cc4c(cc3ccc21)OCO4` . Value?
Out: 23

In: Endpoint output: IC50 of `COc1cc2c(cc1OCCCN(C)C)c(=O)n(CCN(C)C)c1c3cc4c(cc3ccc21)OCO4` . Value?
Out: 9.3

In: Endpoint output: IC50 of `COc1cc2c(cc1OCCCN1CCCCC1)c(=O)n(CCN(C)C)c1c3cc4c(cc3ccc21)OCO4` . Value?
Out: 7.4

In: Endpoint output: IC50 of `COc1cc2c(=O)n(CCN(C)C)c3c4cc5c(cc4ccc3c2cc1OCCCN(C)C)OCO5` . Value?
Out: 4.7

* * *

assay: AUC infinity in male Sprague-Dawley rat at 5 mg/kg, IG measured up to 24 hrs by LCMS-MS analysis; type: ADME, organism-based; settings: in vivo, po
measured-attribute: AUC(0-inf)

In: Endpoint output: AUC(0-inf) of `COc1cc2c(=O)n(CCN(C)C)c3c4cc5c(cc4ccc3c2cc1OCCN1CCOCC1)OCO5` . Value?
Out: 735 ng·h/mL

* * *

assay: AUC infinity in male Sprague-Dawley rat at 1 mg/kg, iv measured up to 24 hrs by LCMS-MS analysis; assay type: ADME, organism-based; conditions: in vivo
measured-attribute: AUC(0-inf) (ng·h/mL)
Note: unit ng·h/mL is implicit; provide only the numeric part.

In: Endpoint output: AUC(0-inf) of `COc1cc2c(=O)n(CCN(C)C)c3c4cc5c(cc4ccc3c2cc1OCCN1CCOCC1)OCO5` . Value?
Out: 291

* * *

# reported pIC50; entries follow
molecular target: Tyrosyl-DNA phosphodiesterase 1 (Homo sapiens); experiment: Inhibition of recombinant TDP1 (unknown origin) assessed as substrate cleavage using 5'-Cy5-GATCTAAAAGACTT-pY-3' DNA substrate measured after 15 mins by gel-based assay
To interpret pIC50, take it as minus log10 of a concentration measured in moles per litre.

Some entries whose results are on file:
In: Endpoint output: pIC50 of `COc1cc2c(=O)n(CCN(C)C)c3c4cc5c(cc4ccc3c2cc1OCCN1CCN(C)CC1)OCO5` . Value?
Out: 5.22

In: Endpoint output: pIC50 of `COc1cc2c(cc1OCCN1CCCC1)c(=O)n(CCN(C)C)c1c3cc4c(cc3ccc21)OCO4` . Value?
Out: 4.54

In: Endpoint output: pIC50 of `COc1cc2c(cc1OCCN(C)C)c(=O)n(CCN(C)C)c1c3cc4c(cc3ccc21)OCO4` . Value?
Out: 4.23

Continuing:
In: Endpoint output: pIC50 of `COc1cc2c(cc1OCCN1CCCCC1)c(=O)n(CCN(C)C)c1c3cc4c(cc3ccc21)OCO4` . Value?
Out: 4.80

In: Endpoint output: pIC50 of `COc1cc2c(cc1OCCCN1CCCC1)c(=O)n(CCN(C)C)c1c3cc4c(cc3ccc21)OCO4` . Value?
Out: 5.27

In: Endpoint output: pIC50 of `COc1cc2c(cc1OCCN1CCN(C)CC1)c(=O)n(CCN(C)C)c1c3cc4c(cc3ccc21)OCO4` . Value?
Out: 4.34

In: Endpoint output: pIC50 of `COc1cc2c(=O)n(CCN(C)C)c3c4cc5c(cc4ccc3c2cc1OCCCN1CCCC1)OCO5` . Value?
Out: 5.44
